Test system: trachealis muscle
Assay: Inhibition of calcium dependent smooth muscle contraction (KCl-challenged trachea)
Type: cell-based, dog
Details: Canis lupus familiaris; Table I; concentration 10.0 μM; read-out: Inhibition of Ca2+ dependent smooth muscle contraction % Inhibition
For each record, write down the corresponding inhibition at 10 µM.
Entry format: amount then unit.

# query: inhibition at 10 µM | item COC(=O)C1=C(C)NC2=C(C1c1ccccc1[N+](=O)[O-])S(=O)(=O)CCC2 (stereo not drawn) | system: trachealis muscle
84%

Another: COC(=O)C1=C(C)NC2=C(C1c1cccc([N+](=O)[O-])c1)S(=O)(=O)CC2 (stereo not drawn)
76%

Another: CCOC(=O)C1=C(C)NC2=C(C1c1ccccc1[N+](=O)[O-])S(=O)(=O)CCC2 (stereo not drawn)
75%

Another: CCOC(=O)C1=C(C)NC2=C(C1c1cccc([N+](=O)[O-])c1)S(=O)(=O)CCC2 (stereo not drawn)
69%

Another: COC(=O)C1=C(C)NC2=C(C1c1cccc([N+](=O)[O-])c1)S(=O)(=O)CCC2 (stereo not drawn)
57%

Another: CC1=C(C(=O)OCc2ccccc2)C(c2ccccc2[N+](=O)[O-])C2=C(CCCS2(=O)=O)N1 (stereo not drawn)
69%
